Where do these numbers come from? They come from patent US9187428B2.

Target: adenosine A2b receptor (Homo sapiens (Human), UniProt P29275)
Sequence (P29275 whole entry): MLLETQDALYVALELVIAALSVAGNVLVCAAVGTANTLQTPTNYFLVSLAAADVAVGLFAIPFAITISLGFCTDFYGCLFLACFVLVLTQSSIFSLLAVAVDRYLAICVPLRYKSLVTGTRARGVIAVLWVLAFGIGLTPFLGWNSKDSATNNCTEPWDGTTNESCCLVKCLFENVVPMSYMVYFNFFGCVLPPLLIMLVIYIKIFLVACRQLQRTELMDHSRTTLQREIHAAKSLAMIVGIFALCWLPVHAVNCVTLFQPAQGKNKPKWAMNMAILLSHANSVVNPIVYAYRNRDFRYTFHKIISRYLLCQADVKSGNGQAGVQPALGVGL
Experiment: Indirect determination of adenosine agonism by gene expression (luciferase reporter), A2b cells
Conditions: CHO cells stably transfected with adenosine A2b receptor, 50% of maximum stimulation
attribute-measured: EC50 (nM)

1. N#Cc1c(N)nc(OCc2ccnc(C(=O)NC3CC3)c2)c(C#N)c1-c1ccccc1 :: 440

[I] CNC(=O)c1cc(CSc2nc(N)c(C#N)c(-c3ccc4c(c3)OCCO4)c2C#N)ccn1
[II] CNC(=O)c1cc(CSc2nc(N(C)CCO)c(C#N)c(-c3ccccc3)c2C#N)ccn1
[III] CNC(=O)c1cc(CSc2nc(NC[C@H](O)CO)c(C#N)c(-c3ccccc3)c2C#N)ccn1
Query :: Arrange these compounds by their EC50, starting with the largest number. Write the labels, ordered according to the request.
Result :: III, II, I

====

Target: adenosine A2b receptor (Homo sapiens (Human), UniProt P29275)
Assay: Indirect determination of adenosine agonism by gene expression (luciferase reporter), A2b cells
Details: CHO cells stably transfected with adenosine A2b receptor, 50% of maximum stimulation
pEC50: −log10 of the molar value. Structures can show the parent of a compound that is named as a salt.
attribute-measured: pEC50

Consider the worked cases shown below.
1. N#Cc1c(N)nc(SCc2cccc(C(=O)NC[C@@H](O)CO)c2)c(C#N)c1-c1ccc(F)cc1 [Example 96] :: 6.69
2. N#Cc1cnc(SCc2cccc(C(N)=O)c2)c(C#N)c1-c1ccccc1 [Example 65] :: 6.24
3. CNC(=O)c1cc(CSc2ncc(C#N)c(-c3ccc(OCCO)cc3)c2C#N)ccn1 [Example 30] :: 6.91
4. CNC(=O)c1cc(CSc2ncc(C#N)c(-c3ccccc3)c2C#N)ccn1 [Example 32] :: 5.67
5. CNC(=O)c1cc(CSc2nc(N)c(C#N)c(-c3ccc(OCCNC(=O)[C@H](C)N)cc3)c2C#N)ccn1 [Example 55, trifluoroacetate] :: 6.57

[I] N#Cc1c(N)nc(SCc2cccc(C(=O)NCCN)c2)c(C#N)c1-c1ccccc1 [Example 101, hydrochloride]
[II] CNC(=O)c1cc(CSc2nc(N3CC(O)C3)c(C#N)c(-c3ccccc3)c2C#N)ccn1 [Example 70]
[III] CNC(=O)c1cc(CSc2nc(N)c(C#N)c(-c3ccc(OCC(C)(C)O)cc3)c2C#N)ccn1 [Example 7]
[IV] CNC(=O)c1cc(CSc2ncc(C#N)c(-c3ccc(OC)cc3)c2C#N)ccn1 [Example 31]
Query :: Arrange these molecules by their pEC50, starting with the largest number. Write the labels, ordered according to the request.
Result :: III, I, IV, II
(III: 7.49, I: 6.79, IV: 6.15, II: 5.84)

====

Test: Determination of the solubility
Type: physicochemical
Settings: PEG 400/water solution (30:70 v/v), aqueous with cosolvent or surfactant or cyclodextrin, kinetic from dmso stock, PEG 400/water (30:70 v/v), 20° C., read-out: Solubility [mg/liter] PEG/water solution (30:70 v/v)
Method: B-8. Determination of the Solubility • PBS buffer pH 6.5: 90.00 g of NaCl p.a. (for example from Merck, Art. No. 1.06404.1000), 13.61 g of KH2PO4 p.a. […] The samples are analyzed by RP-HPLC. Quantification is carried out using a two-point calibration curve of the test compound in DMSO. […]
attribute-measured: solubility at 24 h (mg/L)

Consider the worked cases shown below.
1) N#Cc1c(NC[C@@H](O)CO)nc(SCc2cccc(C(N)=O)c2)c(C#N)c1-c1ccccc1 :: 440
2) N#Cc1c(N)nc(SCc2ccnc(C(=O)NC3CC3)c2)c(C#N)c1-c1ccccc1 :: 210

[P] COCCOc1ccc(-c2c(C#N)c(N)nc(SC(C)c3cccc(C(N)=O)c3)c2C#N)cc1 (single isomer, unassigned)
[Q] N#Cc1c(N)nc(SCc2cccc(C(N)=O)c2)c(C#N)c1-c1ccccc1
[R] CC(Sc1nc(N)c(C#N)c(-c2ccc(OCCO)cc2)c1C#N)c1cccc(C(N)=O)c1 (single isomer, unassigned)
Query :: Task for the reader: rank each entry by its solubility at 24 h, from the minimum upward. Write the labels, ordered according to the request.
Result :: Q, R, P
(Q: 53 mg/L, R: 90 mg/L, P: 260 mg/L)
